# STUDY_SYSTEM: glucagon receptor (UniProt P47871 26-477, limits assumed)
# Sequence (P47871 26-477 limits assumed): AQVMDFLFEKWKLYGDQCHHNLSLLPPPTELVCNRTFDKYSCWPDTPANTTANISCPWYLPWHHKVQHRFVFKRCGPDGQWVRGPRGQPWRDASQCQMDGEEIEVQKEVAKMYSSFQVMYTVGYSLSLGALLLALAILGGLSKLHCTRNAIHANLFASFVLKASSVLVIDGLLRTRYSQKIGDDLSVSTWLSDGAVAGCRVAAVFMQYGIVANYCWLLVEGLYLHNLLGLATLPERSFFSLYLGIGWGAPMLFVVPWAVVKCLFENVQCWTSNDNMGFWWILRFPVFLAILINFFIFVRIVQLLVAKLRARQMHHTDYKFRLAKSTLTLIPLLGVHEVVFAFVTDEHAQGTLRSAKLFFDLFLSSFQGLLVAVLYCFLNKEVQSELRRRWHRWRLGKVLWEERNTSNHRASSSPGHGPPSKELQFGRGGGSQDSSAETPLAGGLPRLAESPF
# PROTOCOL_SUMMARY: cell-based or functional assay
Positions of bridges follow the written chain, without caps; N, C: chain ends. Non-standard residues stand in square brackets, D forms with d. No end group written: not given here. PhLac = O=C(O)[C@@H](O)Cc1ccccc1
Assign Glucagon IC50 to each entry below.
Your answer should be a plain number; it is taken to be in nM.

## Task Tell me Glucagon IC50 reported for [PhLac]TSDYSKYLDERRAQDFVEWLMKT (lactam 19-23) [[PLA6, D9, E16, E24K28(lactam)]G(6~29) (Table 2 peptide 4)]
## Result 22

## Task Give me measured Glucagon IC50, please, for this binder: [PhLac]TSDYSKYLDERRAKDFVEWLMDT (lactam 15-19) [[PLA6, D9, E16, K20E24(Lactam), D28]G(6-29) (Table 2 peptide 3)]
## Result 74

## Task Give Glucagon IC50 for AEGTFTSEYSKYLDERRAKDFVQWLMDT (lactam 15-19) [[A2E3, E16K20(Lactam),D28]G(2~29) (Table 2 peptide 7)]
## Result 63

## Task Supply Glucagon IC50 value. Item: [PhLac]TSDYSKYLDERRAQDFVQWLMDT (lactam 7-11; not fully specified) [[PLA6, D9, K12E16(Lactam), D28]G(6-29) (Table 2 peptide 2)]
## Result 63
